The values you see were collected from patent US20180362628A1.

# target: T1, Recombinant CSP (Wellcome Trust Sanger Institute, FIG. 22), CSP ectodomain with BirA biotinylation tag, … (Plasmodium falciparum strain 3D7, UniProt Q7K740 19-376, biotinylated at the BirA substrate peptide)
# T1 construct: extracellular domain; Expressed in HEK293, 45 kDa; order of the tags is that of the legend, not confirmed; also called biotinylated recombinant CSP
# measurement_notes: SPR (ProteOn), biotinylated CSP on NLC chip, Fab as analyte, 25 C, 1:1 fit
attribute_measured: Kd (nM)
Entry rule: numbers only, all in nM.

>  <binder>
Antibody 666 Fab (Fab, V domains shown, recombinant human Fab from CHO-3E7 cells, purified on nickel columns) VH: QVQLVQSGAEVKKPGASVKVSCKASGYTFTNYAMHWVRQAPGQRLEWMGWINAGNGNTKYSQNFQGRVTITRDTSASTAYMELSSLRSEDTAVYYCARDEYYASGSYYDYYYYGMDVWGQGTTVTVTS VL: QSALTQPASVSGSPGQSITISCTGTSSDVGVYNYVSWFQQHPGKAPKLMIYNVSKRPSGVSNRFSGSKSGNTASLTISGLQAEDEADYYCCSYAGSSTWVFGGGTNLTVL

>  <measurement_unit>
nM

>  <measurement>
52

$$$$

Ask: Any idea what Kd was measured for Antibody 668 Fab (Fab, V domains shown, recombinant human Fab from CHO-3E7 cells, purified on nickel columns) VH: QVQLVQSGAEVKKPGASVKVSCKASGFTFTDYAMHWVRQAPGQRLEWMGWINAGNGYTKYSQKFQDRLTITRDTFASTVYMELSSLRSEDTTVYYCARDGFCPSNTCSGYYGMDVWGQGTTVTVSS VL: QSALTQPASVSGSPGQSITISCTGTSSDVGSYNYVSWYQQHPGKAPKLMIYDVNTRPSGVSIRFSASKSGNTASLTVSGLQAEDEAVYYCSSYAGSSTWVFGGGTKLTVL ?
Reply: 12.5

Ask: Would you kindly repeat that for Antibody 669 Fab (Fab, V domains shown, recombinant human Fab from CHO-3E7 cells, purified on nickel columns) VH: QVQLVQSGAEVKKPGASVRVSCKASGFTFTSYAMHWVRQAPGQRLEWMGWINAGNGHTKYSQKFQDRVAITRDTSATTVYMDLSSLRSEDTAVYYCTRDGFCTSTTCSDHYGMDVWGQGTTVTVSS VL: QSALTQPASVSGSPGQSITISCTGTSSDVGSYNYVSWYQQHPGKAPKFMIYDVSKRPSGVSNRFSGSKSGNTASLTISGLQAEDEADYYCCSYAGSSTWVFGGGTKLTVL ?
Reply: 126

Ask: Would you kindly repeat that for Antibody 667 Fab (Fab, V domains shown, recombinant human Fab from CHO-3E7 cells, purified on nickel columns) VH: QVQLVQSGAEVKKPGASVKVSCRASGYTFTNYAMHWVRQAPGQRLEWMGWINAGNGYTKYSQKFQDRVTITRDTSATTAYMELSSLRSEDTAMYYCARDSFYDILSGPVYHYYGMDVWGQGTTVTVSS VL: QSALTQPDSVSGSPGQSITISCTGTSNDVGIYNHVSWYQQHPGKAPKLMIYDVNKRPSGISNRFSGSKSGDTASLTISGLQAEDEADYYCCSYAGSSAWVFGGGTKLTVL ?
Reply: 31.6
